meta.source: ChEMBL document CHEMBL1130631

# Measurement target: UniProt P31213
# Method notes: Compound was evaluated for the inhibition of human Steroid 5-alpha-reductase type 2 receptor from human prostate homogenates.
# Type: tissue-based, Prostate gland
Reported property: IC50 (nM)
Field: numeric (nM). Do not append units.

Briefly, IC50 measured for CC(C)(C)NC(=O)[C@@H]1CCC2C3CCC4=CC(=O)CCN4C3=CC[C@@]21C (stereo partly specified) : 122

* * *

Each record here notes measured pIC50.
# Measurement target: 3-oxo-5-alpha-steroid 4-dehydrogenase 1 (Homo sapiens, UniProt P18405)
# Method notes: Compound was evaluated for the inhibition of human Steroid 5-alpha-reductase type 1 from recombinant CHO cells
# Format: cell-based
Recall that pIC50 is obtained by taking minus log10 of the concentration measured in molar.

O=C1C=CN2c3ccccc3CCC2C1 (stereo not drawn)
5.29
O=C1C=C2CCc3ccccc3N2CC1
6.53

Briefly, pIC50 measured for CC(C)(C)NC(=O)[C@H]1CC[C@H]2[C@@H]3CC[C@H]4NC(=O)C=C[C@]4(C)[C@H]3CC[C@]12C [FINASTERIDE] : 6.04

* * *

# Measurement target: 3-oxo-5-alpha-steroid 4-dehydrogenase 2 (Homo sapiens, UniProt P31213)
# Sequence (P31213 whole entry): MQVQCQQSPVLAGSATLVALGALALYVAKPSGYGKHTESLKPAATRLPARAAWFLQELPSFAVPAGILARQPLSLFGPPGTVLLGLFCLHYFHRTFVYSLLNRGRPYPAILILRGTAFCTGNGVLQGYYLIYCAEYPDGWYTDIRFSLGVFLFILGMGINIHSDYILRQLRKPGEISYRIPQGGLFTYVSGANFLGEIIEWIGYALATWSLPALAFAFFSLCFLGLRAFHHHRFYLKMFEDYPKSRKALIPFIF
# Method notes: Compound was evaluated for the inhibition of human Steroid 5-alpha-reductase type 2 receptor from human prostate homogenates
# Format: tissue-based, Prostate gland
Reported property: IC50 (nM)
Field: numeric (nM). Do not append units.

Briefly, IC50 measured for CC(C)(C)NC(=O)[C@H]1CC[C@H]2[C@@H]3CC[C@H]4NC(=O)C=C[C@]4(C)[C@H]3CC[C@]12C [FINASTERIDE] : 1.2

* * *

Target chain: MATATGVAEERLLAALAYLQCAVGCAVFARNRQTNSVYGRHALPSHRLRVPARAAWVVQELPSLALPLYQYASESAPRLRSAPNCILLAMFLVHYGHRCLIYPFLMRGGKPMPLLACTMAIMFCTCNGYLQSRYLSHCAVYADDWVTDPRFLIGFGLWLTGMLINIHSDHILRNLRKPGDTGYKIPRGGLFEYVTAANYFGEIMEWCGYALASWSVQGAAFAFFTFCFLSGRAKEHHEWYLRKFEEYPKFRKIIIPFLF
Reported property: Ki (nM)
Field: numeric (nM). Do not append units.

Briefly, Ki measured for CN1C(=O)CC[C@]2(C)c3ccc(Cl)cc3CCC12 (stereo partly specified) : 9
